Each recorded value in this set is attributed to the supplement of paper PMC4466140.

- measured.on: SpBzz1-D1
- method.description: SPOT peptide array binding signal intensity (averaged, normalized) (arbitrary units (background-subtracted, floor 0; scale differs between SH3 domains)); higher = stronger binding of the SH3 domain to the peptide
value.type: SPOT peptide array binding signal intensity
Provide a numeric answer; units are not to be included.

I am curious: what SPOT peptide array binding signal intensity value has been reported for TKRKRPARLIFYDSK ? 77.5

Would you kindly share the measured SPOT peptide array binding signal intensity for TPTSGPPLLPPRNTM ? 176

Entry under review: VPVAPPPPPASLGQS . Reported SPOT peptide array binding signal intensity? 237

Any idea what SPOT peptide array binding signal intensity was measured for RKRRTHLRLPLIRSN ? 189

Can you look up the measured SPOT peptide array binding signal intensity of RSKRLFPVRPMATAH for me? 142

# lookup: SPOT peptide array binding signal intensity of AIPPPVPNRPGGTTN 146

Query (binder): AVPPPPPPPPLPESL ; field requested: SPOT peptide array binding signal intensity 3120

Name the recorded SPOT peptide array binding signal intensity for GRLRPKRIAPWHLIQ . 228
